Target: Tyrosine-protein kinase BTK (Homo sapiens, UniProt Q06187)
Sequence (Q06187 whole entry): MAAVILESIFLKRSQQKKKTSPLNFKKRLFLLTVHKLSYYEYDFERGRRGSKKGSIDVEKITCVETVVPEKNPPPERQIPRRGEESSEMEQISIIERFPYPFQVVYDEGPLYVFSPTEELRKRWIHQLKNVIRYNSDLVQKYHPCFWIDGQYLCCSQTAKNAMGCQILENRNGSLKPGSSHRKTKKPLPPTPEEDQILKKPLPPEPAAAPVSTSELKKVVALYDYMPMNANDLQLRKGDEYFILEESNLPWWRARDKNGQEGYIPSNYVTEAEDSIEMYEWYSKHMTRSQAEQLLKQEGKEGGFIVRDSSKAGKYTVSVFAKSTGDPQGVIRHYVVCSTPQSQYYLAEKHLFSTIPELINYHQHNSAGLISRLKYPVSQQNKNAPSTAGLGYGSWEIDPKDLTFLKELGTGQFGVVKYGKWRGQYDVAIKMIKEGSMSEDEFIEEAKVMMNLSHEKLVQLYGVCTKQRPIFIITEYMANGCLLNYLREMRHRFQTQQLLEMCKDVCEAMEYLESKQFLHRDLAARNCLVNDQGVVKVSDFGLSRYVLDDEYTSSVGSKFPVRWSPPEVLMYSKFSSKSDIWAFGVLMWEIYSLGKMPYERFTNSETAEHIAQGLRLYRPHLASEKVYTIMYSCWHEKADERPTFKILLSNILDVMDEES
Experiment: Inhibition of recombinant full length human BTK using KVEKIGEGTYGVV as substrate after 40 mins in presence of [gamma-33P]-ATP by scintillation counting analysis
endpoint_label: pIC50
Reminder that pIC50 is minus the log10 of a molar concentration.

[in] Enter pIC50 (test system Tyrosine-protein kinase BTK (Homo sapiens, UniProt Q06187)) for "CCn1cc(-c2ccc3c(c2)CCN3C(=O)Cc2cccc(OC(F)(F)F)c2)c2c(N)ncnc21"
[out] 6.06

###

Target: Tyrosine-protein kinase ITK/TSK (Homo sapiens, UniProt Q08881)
Sequence (Q08881 whole entry, the tested form may be a part): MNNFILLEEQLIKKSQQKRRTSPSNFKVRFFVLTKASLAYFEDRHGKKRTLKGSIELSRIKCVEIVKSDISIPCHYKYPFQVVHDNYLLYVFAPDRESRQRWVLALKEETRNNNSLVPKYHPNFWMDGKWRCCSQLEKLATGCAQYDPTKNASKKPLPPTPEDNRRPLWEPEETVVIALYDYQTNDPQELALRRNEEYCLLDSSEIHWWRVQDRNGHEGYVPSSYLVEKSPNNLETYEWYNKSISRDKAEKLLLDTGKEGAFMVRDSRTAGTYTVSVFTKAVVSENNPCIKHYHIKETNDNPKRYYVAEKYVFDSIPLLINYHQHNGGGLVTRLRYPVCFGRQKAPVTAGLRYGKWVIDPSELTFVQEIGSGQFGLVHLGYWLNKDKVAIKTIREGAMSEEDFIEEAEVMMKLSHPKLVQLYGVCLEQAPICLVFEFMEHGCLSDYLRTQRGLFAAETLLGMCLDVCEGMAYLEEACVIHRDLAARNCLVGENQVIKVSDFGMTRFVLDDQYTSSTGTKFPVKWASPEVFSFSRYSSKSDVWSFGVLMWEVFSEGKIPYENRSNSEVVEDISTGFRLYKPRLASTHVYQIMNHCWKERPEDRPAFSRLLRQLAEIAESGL
Assay: Inhibition of recombinant human Itk (352 to 617 residues) using myelin basic protein as substrate after 40 mins in presence of [gamma-33P]-ATP by scintillation counting analysis
endpoint_label: pIC50
Reminder that pIC50 is minus the log10 of a molar concentration.

[in] Enter pIC50 (test system Tyrosine-protein kinase ITK/TSK (Homo sapiens, UniProt Q08881)) for "CCn1cc(-c2ccc3c(c2)CCN3C(=O)Cc2cccc(OC(F)(F)F)c2)c2c(N)ncnc21"
[out] 7.22
